From: the supplement of paper PMC9170038

Tested on: K4 kissing-loop RNA reporter;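 also: bound reporter read as fluorescence of individual clusters on recovered sequencing chips by microscopy, with normalized cluster intensities fitted with a binding model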
PROCEDURE TEXT: apparent KD of K4 kissing-loop reporter; higher = weaker reporter binding
CONDITION INFO: Eterna round: R107; input ligand: tryptophan 2.4 mM
apparent KD of K4 kissing-loop reporter of 200 nM or higher: t. Under 200 nM: f.

| PRIMARY SEQUENCE | LABEL CLASS |
| --- | --- |
| CUCCGACUAUCGGCCGCCACUAUCGGAAAGUCCACGGACAUUCAAUGCAGUUAGUGAUGUUAACGUAGGACCGGGAUGAUUUGUA [theeternabot_sameState_KL_Trp_B_9] | t |
| AUGGACUCUUCGGAGUCCGCCUUAAGGGAUACCAGUGAUGUUGGUCACCCUUGGCAGCCUAGAAAGGAAGCCACCAAAGGUGGCA [Omei v1 mod #OpenEnded #Sliding] | f |
| UCCUGCUGUCUGCCACGAAAGUGGAUUGAUACCAGAGUCGAAAGACUCCCUUGGCAGCGAGUGAUGUUCGAAGCAGGUAAAUAAA [MatMod 2 - Jieux - Exclusion - Theophylline A] | f |
| AGACUACCAACACUGUCAAUAGACAGUGACUAGGAUAUGCUGAUAAGCAGAAGGAGUGAUGUUCCUAAUAGAAAGGUAGUCAAAU [FmnAX 17 #SwitchBubble #StaticStem #K4Early] | t |
| AGCGUCCCUACGGCCGCCACUGGGAGUGAUGUUCCCAGGUUAGGCCUGAGGAUACUAUGGAUCGCCAGGACCGGGUAGCGACCAA [Zaarin] | f |
